# assay-comment: logP (HPLC-MS)
# Type: physicochemical
# condition-context: HPLC, reversed-phase column (C18), 43° C., acidic range pH 2.7, EEC directive 79/831 Annex V.A8; two values = both regioisomers (G = N); read-out: log p
reported-property: chromatographic logP

{"compound": "N#CC1(NC(=O)c2cc3cc(C(=O)NC(c4cccc(C(F)(F)F)c4)C(F)(F)F)n(C4CC4)c3cc2Cl)CC1 (stereo not drawn) [Compound 302]", "reported-property": "chromatographic logP", "numeric-result": 3.6}
{"compound": "O=C(NC1CC1)c1cc2nc(C(=O)NC(c3cccc(C(F)(F)F)c3)C(F)(F)F)n(C3CC3)c2cc1Cl (stereo not drawn) [Compound 312]", "reported-property": "chromatographic logP", "numeric-result": 3.48}
{"compound": "CCn1c(C(=O)NC(c2cccc(C(F)(F)F)c2)C(F)(F)F)c(C#N)c2cc(C(=O)NC3(C#N)CC3)c(Cl)cc21 (stereo not drawn) [Compound 279]", "reported-property": "chromatographic logP", "numeric-result": 3.45}
